FYI, the data here is from patent US20260049061A1.

# key: entry, value: activity at 1 µM
target: KNCQ2/3 (Kv7.2/7.3) (Homo sapiens, UniProt O43525+O43526); construct: host or cells: HEK293; experiment: Kv7.2/7.3 (KNCQ2/3) activation assay, QPatch single concentration screen; assay type: cell-based; conditions: increase in current over baseline, HEK293 cells with overexpressed Kv7.2/3, compound 1 μM, steady-state current at +40 mV

O=C(CCC(F)(F)F)Nc1nn2c(c1-c1ccc(F)cc1)CC(C(F)(F)F)CC2 (stereo not drawn): 200 to 300%
CC(C)(C)CC(=O)Nc1nn2c(c1C1CCC1)CCCC2: 200 to 300%
CCn1c(NC(=O)CC(C)(C)C)nc2c1CCCC2: 200 to 300%
CC(C)(C)CC(=O)Nc1nc2c(n1C1CCC1)CCCC2: 100 to 200%
CC(C)(C)CC(=O)Nc1nn2c(c1-c1ccc(F)cc1)CN(C1CC1)CC2: 200 to 300%
CC(C)(C)CC(=O)Nc1nn2c(c1-c1ccc(F)cc1)CC1(CC2)CC(F)(F)C1: ≥ 300%

Find the measured activity at 1 µM: item CC(C)(CC(=O)Nc1nn2c(c1-c1ccc(F)cc1)CC(C(F)(F)F)CC2)C(F)(F)F (stereo not drawn) , target or system KNCQ2/3 (Kv7.2/7.3) (Homo sapiens, UniProt O43525+O43526).
≥ 300%

Find the measured activity at 1 µM: item CC1(CC(=O)Nc2nn3c(c2-c2ccc(F)cc2)CC(C(F)(F)F)CC3)CC1 (stereo not drawn) , target or system KNCQ2/3 (Kv7.2/7.3) (Homo sapiens, UniProt O43525+O43526).
≥ 300%

Find the measured activity at 1 µM: item O=C(CC12CC(C1)C2)Nc1nn2c(c1-c1ccc(F)cc1)CC(C(F)(F)F)CC2 (stereo not drawn) , target or system KNCQ2/3 (Kv7.2/7.3) (Homo sapiens, UniProt O43525+O43526).
≥ 300%

----------
# key: entry, value: % MPE (10 mpk)
system: formalin model using SD rats; experiment: 2% formalin rat model (paw licking); type: in vivo; details: male SD rats, 10 mg/kg oral 15 min before intraplantar 2.0% formalin, paw licking monitored for 60 min
Numeric answer only, unit % assumed.

CC(C)(CC(=O)Nc1nn2c(c1-c1ccc(F)cc1)CCCC2)C(F)(F)F: 87
O=C(CCC(F)(F)F)Nc1nn2c(c1-c1ccc(F)cc1)CC(C(F)(F)F)CC2 (centres unmarked): 65

# % MPE (10 mpk) lookup, item CC(C)(CC(=O)Nc1nn2c(c1-c1ccc(F)cc1)C[C@@H](C(F)(F)F)CC2)C(F)(F)F
97

# % MPE (10 mpk) lookup, item CC(C)(C)n1c(NC(=O)CC(C)(C)C(F)(F)F)nc2cc3c(cc21)CNC3
89

# % MPE (10 mpk) lookup, item CC(C)CS(=O)(=O)Nc1nn2ccc(Cl)cc2c1-c1ccc(F)cc1
89

----------
target: KNCQ2/3 (Kv7.2/7.3) (Homo sapiens, UniProt O43525+O43526); construct: host or cells: HEK293; assay: Kv7.2/7.3 (KNCQ2/3) activation assay, QPatch single concentration screen; assay type: cell-based; settings: increase in current over baseline, HEK293 cells with overexpressed Kv7.2/3, compound 1 μM, steady-state current at +40 mV
Measurement Name: activity at 1 µM

# activity at 1 µM lookup, item CC(C)(C)CC(=O)Nc1nn2c(c1C1=CCCCC1)CC(C(F)(F)F)CC2 (stereo not shown) [Compound 14]
200 to 300%

# activity at 1 µM lookup, item CC(C)(C)CC(=O)Nc1nc2c(n1C(C)(C)C)CCCC2 [Compound 1]
100 to 200%

# activity at 1 µM lookup, item CCn1c(NC(=O)CC(C)(C)C(F)(F)F)nc2c1CCCC2 [Compound 64]
100 to 200%

# activity at 1 µM lookup, item CC(C)(C)CC(=O)Nc1nc2n(c1-c1ccc(OC(F)(F)F)cc1)CCCC2 [Compound 54]
200 to 300%

# activity at 1 µM lookup, item CC(C)(F)CC(=O)Nc1nn2c(c1-c1ccc(F)cc1)CC(C(F)(F)F)CC2 (stereo not shown) [Compound 36]
≥ 300%

# activity at 1 µM lookup, item COC1CCn2nc(NC(=O)CC(C)(C)C)c(-c3ccc(F)cc3)c2C1 (stereo not shown) [Compound 12]
200 to 300%
